Provenance of the data: ChEMBL document CHEMBL3407387

# method notes: Antioxidant activity assessed as DPPH radical scavenging activity incubated for 5 mins by microplate spectrophotometry
# Type: physicochemical
value kind: IC50 (µM)

[[record]]
compound = "Oc1cc(-c2cc3ccccc3o2)cc(O)c1O"
value_kind = "IC50"
unit_abbrev = "µM"
observed_measurement = 10.8


(A) Oc1ccc(-c2cc3cccc(O)c3o2)cc1O
(B) CCOC(=O)/C=C/c1cc(O)c2oc(-c3cc(O)c(O)c(O)c3)cc2c1
(C) Oc1cc(Br)c(-c2cc3c(Br)ccc(O)c3o2)cc1O
[in] List items by IC50 in falling order. Returns: the labels arranged in the requested order.
[out] A, B, C
(A: 18.5 µM, B: 11.7 µM, C: 7.8 µM)

###

# method notes: Inhibition of Saccharomyces cerevisiae alpha-glucosidase using 4-NPGP substrate assessed as reduction in 4-nitrophenol release pre-incubated for 10 mins before substrate addition by microplate reader based assay
Here the recorded pIC50 is given for each entry.
The quantity pIC50 is defined as the negative base-10 logarithm of the molar concentration.

[[record]]
compound = "O=c1c(O)c(-c2ccc(O)c(O)c2)oc2cc(O)cc(O)c12 [QUERCETIN]"
observed_measurement = 5.18


Switching to the query record.
[in] Fill in: pIC50 of `Oc1ccc(-c2cc3cc(Br)cc(O)c3o2)cc1` is ___
[out] 4.53

###

# method notes: Mixed type inhibition of Saccharomyces cerevisiae alpha-glucosidase using 4-NPGP substrate assessed as equilibrium constant for binding to enzyme-4-NPGP complex by measuring reduction in 4-nitrophenol release pre-incubated for 10 mins before substrate addition by Dixon plot analysis
value kind: Ki (µM)

[[record]]
item_smiles = "Oc1ccc(-c2cc3cccc(O)c3o2)cc1O"
value_kind = "Ki"
observed_measurement = 13.7

[[record]]
item_smiles = "CCOC(=O)/C=C/c1cc(O)c2oc(-c3cc(O)c(O)c(O)c3)cc2c1"
value_kind = "Ki"
observed_measurement = 11.8


###

# method notes: Inhibition of Saccharomyces cerevisiae alpha-glucosidase using 4-NPGP substrate assessed as reduction in 4-nitrophenol release pre-incubated for 10 mins before substrate addition by microplate reader based assay
value kind: IC50 (µM)

Here's what some known entries look like.
[[record]]
item_smiles = "Oc1cc(-c2cc3ccccc3o2)cc(O)c1O"
observed_measurement = 8.2

[[record]]
item_smiles = "Oc1cc(-c2cc3ccccc3o2)c(Br)c(O)c1O"
observed_measurement = 8.5

[[record]]
item_smiles = "Oc1cc(Br)c(-c2cc3ccccc3o2)cc1O"
observed_measurement = 7.7


(P) CCOC(=O)/C=C/c1ccc(O)c2oc(-c3ccc(O)c(O)c3)cc12
(Q) CCOC(=O)/C=C/c1cc(O)c(O)cc1-c1cc2cccc(O)c2o1
[in] Hi! Which is lower in terms of IC50, the first one P or the second one Q ? Mark your selection by writing its label.
[out] Q

###

# method notes: Mixed type inhibition of Saccharomyces cerevisiae alpha-glucosidase using 4-NPGP substrate assessed as equilibrium constant for binding to enzyme by measuring reduction in 4-nitrophenol release pre-incubated for 10 mins before substrate addition by Dixon plot analysis
value kind: Ki (µM)

[[record]]
item_smiles = "Oc1ccc(-c2cc3cccc(O)c3o2)cc1O"
value_kind = "Ki"
observed_measurement = 4.21

[[record]]
item_smiles = "CCOC(=O)/C=C/c1cc(O)c2oc(-c3cc(O)c(O)c(O)c3)cc2c1"
value_kind = "Ki"
observed_measurement = 3.19


###

Measured IC50, listed per entry.
# method notes: Antioxidant activity assessed as DPPH radical scavenging activity incubated for 5 mins by microplate spectrophotometry
# Format: physicochemical

[in] What value of measured IC50 is listed for `COc1ccc(-c2cc3cccc(OC)c3o2)cc1OC` ?
[out] > 100 µM

[in] Return reported IC50; argument: `Oc1ccc(-c2cc3cc(Br)cc(O)c3o2)cc1`
[out] > 100 µM

[in] Recorded IC50 of `COc1cc(Br)c(-c2cc3cccc(OC)c3o2)cc1OC` , please.
[out] > 100 µM

###

# method notes: Antioxidant activity assessed as DPPH radical scavenging activity incubated for 5 mins by microplate spectrophotometry
# Type: physicochemical
pIC50: −log10 of the molar value.
value kind: pIC50

[[record]]
compound = "Oc1cc(-c2cc3cccc(O)c3o2)cc(O)c1O"
observed_measurement = 4.89

[[record]]
compound = "O=c1c(O)c(-c2ccc(O)c(O)c2)oc2cc(O)cc(O)c12 [QUERCETIN]"
observed_measurement = 5.22

[[record]]
compound = "Oc1cc(-c2cc3c(Br)ccc(O)c3o2)c(Br)c(O)c1O"
observed_measurement = 4.71

[[record]]
compound = "CCOC(=O)/C=C/c1ccc(O)c2oc(-c3ccc(O)c(O)c3)cc12"
observed_measurement = 4.77

